Target: human full-length glucocorticoid receptor (Homo sapiens, UniProt P04150)
Construct: recombinantly expressed human full-length glucocorticoid receptor; purchased PanVera Co., Madison, Wis; P2816
Sequence (P04150 whole entry): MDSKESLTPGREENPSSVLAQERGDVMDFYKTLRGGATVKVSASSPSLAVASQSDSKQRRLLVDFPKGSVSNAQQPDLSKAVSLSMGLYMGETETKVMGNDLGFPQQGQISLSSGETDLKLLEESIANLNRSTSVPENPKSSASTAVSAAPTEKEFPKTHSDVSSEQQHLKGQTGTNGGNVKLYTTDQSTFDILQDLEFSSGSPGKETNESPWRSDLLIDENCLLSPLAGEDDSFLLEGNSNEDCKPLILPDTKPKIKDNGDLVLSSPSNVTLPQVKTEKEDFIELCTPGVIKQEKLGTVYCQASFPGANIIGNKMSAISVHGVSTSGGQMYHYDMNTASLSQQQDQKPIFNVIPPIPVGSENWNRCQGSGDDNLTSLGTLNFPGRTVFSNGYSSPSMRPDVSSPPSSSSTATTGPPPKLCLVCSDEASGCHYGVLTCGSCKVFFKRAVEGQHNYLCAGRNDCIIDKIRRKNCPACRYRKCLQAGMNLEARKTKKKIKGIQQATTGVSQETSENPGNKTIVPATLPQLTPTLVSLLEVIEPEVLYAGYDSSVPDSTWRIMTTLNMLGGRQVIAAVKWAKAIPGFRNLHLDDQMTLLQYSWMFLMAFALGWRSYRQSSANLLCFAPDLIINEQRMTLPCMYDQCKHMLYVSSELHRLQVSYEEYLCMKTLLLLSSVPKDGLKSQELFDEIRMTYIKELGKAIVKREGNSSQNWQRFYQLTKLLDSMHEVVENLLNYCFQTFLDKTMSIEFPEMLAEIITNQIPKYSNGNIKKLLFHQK
Assay: Glucocorticoid Receptor Binding Assay (II), fluorescence polarization competitor kit (Fluormone GS1)
Conditions: GR Binding Assay (II)
Attribute Measured: Ki (nM)

Record excerpt, results attached:
Request: // lookup Ki | system=human full-length glucocorticoid receptor (Homo sapiens, UniProt P04150) | key= CC(C)(C(=O)Nc1nccs1)C(c1ccccc1)c1ccc(Br)cc1 (stereo not shown)
Response: 23.2

Request: Give human full-length glucocorticoid receptor (Homo sapiens, UniProt P04150) Ki for CC(O)c1cccc(C(c2ccccc2)C(C)(C)C(=O)Nc2nccs2)c1 (stereo not shown)
Response: 320

Request: Lookup: Ki / human full-length glucocorticoid receptor (Homo sapiens, UniProt P04150) / COc1ccc([C@@H](c2ccccc2)C(C)(C)C(=O)Nc2nc(C)cs2)cc1
Response: 315

Request: Write down the reported Ki of CC(C)(C(=O)Nc1nncs1)C(c1ccccc1)c1ccc(N)cc1 (stereo not shown) , test system: human full-length glucocorticoid receptor (Homo sapiens, UniProt P04150).
Response: 60.5

(I) CC(C)(C(=O)Nc1nccs1)[C@H](c1ccccc1)c1ccc(OC(=O)c2ccco2)cc1
(II) COc1ccc([C@@H](c2ccccc2)C(C)(C)C(=O)NC2CC2)cc1
Request: Returns: the argument ( I or II ) having the larger Ki. Please reply using the label of the selected record.
Response: II
(II: 2000 nM, I: 47 nM)
